Biological target: P2X purinoceptor 4 (Homo sapiens)
Sequence (Q99571 whole entry): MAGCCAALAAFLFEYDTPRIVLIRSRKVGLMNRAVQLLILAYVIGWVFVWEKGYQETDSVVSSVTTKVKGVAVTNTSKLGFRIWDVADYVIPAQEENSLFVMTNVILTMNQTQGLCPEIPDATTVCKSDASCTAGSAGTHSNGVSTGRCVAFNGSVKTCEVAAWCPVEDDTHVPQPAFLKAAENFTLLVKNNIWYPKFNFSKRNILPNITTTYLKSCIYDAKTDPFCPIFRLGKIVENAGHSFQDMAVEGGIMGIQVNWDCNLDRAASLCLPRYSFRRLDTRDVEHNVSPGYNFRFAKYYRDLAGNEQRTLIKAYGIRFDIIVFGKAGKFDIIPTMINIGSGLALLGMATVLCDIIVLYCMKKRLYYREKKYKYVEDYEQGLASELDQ
pIC50: −log10 of the molar value.
metric_name: pIC50

I looked up "C[C@@H](Cn1c(=O)[nH]/c(=N\c2ccc(Oc3ccccn3)cc2)n(Cc2ccc(Cl)cc2)c1=O)C(=O)O" and its pIC50 for P2X purinoceptor 4 (Homo sapiens) was < 4.52

---
I looked up "C[C@@H](Cn1c(=O)[nH]/c(=N\c2ccc(Oc3ccnc(F)c3)cc2)n(Cc2ccc(Cl)cc2)c1=O)C(=O)O" and its pIC50 for P2X purinoceptor 4 (Homo sapiens) was < 4.52
